Where these numbers come from: ChEMBL document CHEMBL1201862

biological target: UniProt P29990; assay: flavivirus cap methylation enzyme inhibition – biochemical, confirmation dose response, primary screen (AID 588689); assay type: functional
Sequence (P29990 2492-3391 limits assumed): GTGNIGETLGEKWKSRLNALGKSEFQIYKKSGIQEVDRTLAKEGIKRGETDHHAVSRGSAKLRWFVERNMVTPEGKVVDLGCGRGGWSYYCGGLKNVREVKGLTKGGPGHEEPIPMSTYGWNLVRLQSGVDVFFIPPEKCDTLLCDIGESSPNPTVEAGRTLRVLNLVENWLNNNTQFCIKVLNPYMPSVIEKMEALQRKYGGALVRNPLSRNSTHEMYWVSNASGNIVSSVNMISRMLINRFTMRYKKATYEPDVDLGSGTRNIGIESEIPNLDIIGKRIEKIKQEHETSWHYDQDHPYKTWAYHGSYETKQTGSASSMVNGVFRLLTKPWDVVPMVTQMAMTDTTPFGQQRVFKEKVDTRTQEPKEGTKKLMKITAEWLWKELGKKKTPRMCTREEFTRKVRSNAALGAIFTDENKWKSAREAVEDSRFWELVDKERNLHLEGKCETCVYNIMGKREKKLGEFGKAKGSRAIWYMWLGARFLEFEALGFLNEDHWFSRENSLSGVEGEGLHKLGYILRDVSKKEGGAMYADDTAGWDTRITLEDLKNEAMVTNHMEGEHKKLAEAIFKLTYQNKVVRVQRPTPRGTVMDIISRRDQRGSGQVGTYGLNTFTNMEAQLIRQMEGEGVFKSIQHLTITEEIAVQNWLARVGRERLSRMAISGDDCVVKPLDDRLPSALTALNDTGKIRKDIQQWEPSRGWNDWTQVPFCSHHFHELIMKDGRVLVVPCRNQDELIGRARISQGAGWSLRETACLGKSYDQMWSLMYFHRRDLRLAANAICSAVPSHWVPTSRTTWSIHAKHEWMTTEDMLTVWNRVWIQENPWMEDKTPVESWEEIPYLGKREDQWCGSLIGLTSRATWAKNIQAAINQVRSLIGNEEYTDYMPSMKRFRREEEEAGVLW
The source made the active and inactive calls. No rule for the calls is given here.
# IC50 per record follows

# count of solved cases: 3
In [3]: df
Out[3]:
                                   compound   recorded_result
0  Cc1cccc(CS(=O)(=O)c2ncc(Cl)c(C(=O)Nc3nnc(C(C)C)s3)n2)c1  94.3 µM (active)
1  CC1CC(=O)C(C(C2=C(O)CC(C)CC2=O)c2ccccc2)=C(O)C1 (centres undefined)  66.2 µM (active)
2  COc1ccc(/N=c2\oc3c(OC)cccc3cc2C(=O)NCc2ccco2)c(OC)c1  40.8 µM (active)

[ask] For the compound "Oc1ccc(/C=N/NP(=S)(c2ccccc2)c2ccccc2)c(O)c1O" , give its reported IC50.
[reply] > 100 µM (active)

[ask] Supply measured IC50 of "O=C1NC(=O)C(=Cc2ccc(-c3ccccc3[N+](=O)[O-])o2)C(=O)N1" in your reply.
[reply] 17.8 µM (active)

[ask] Complete the entry with IC50 for "COc1cc(/C=C2\C(=N)N3N=C(N4CCOCC4)SC3=NC2=O)ccc1OC(=O)c1ccccc1"
[reply] 80.1 µM (active)

[ask] Consider the compound Cc1[nH]n(-c2ncc(-c3ccc(Cl)cc3)s2)c(=O)c1C(c1ccc(Cl)cc1)C(C#N)C#N (centres undefined) and give its recorded IC50.
[reply] 23 µM (active)

[ask] For COC1=CC(=O)C(C2CC(=O)c3c(O)cc(O)cc3O2)=CC1=O (centres undefined) , write its IC50.
[reply] 9.23 µM (active)

[ask] Using the record for CC(C)(C)c1ccc(C(=O)CC(Sc2ccc(Cl)cc2)C(=O)O)cc1 (centres undefined) , state its measured IC50.
[reply] 38.1 µM (active)
